# Species on record: Sus scrofa
# EXPERIMENT: Inhibition of pig GSK3 assessed as residual enzyme activity at 10 uM
REPORTED_ENDPOINT: Activity

# return Activity for each item in the list
1. CC(=O)OC[C@H]1O[C@@H](N2C(=O)/C(=C3/C(=O)Nc4ccc(C#CCNC(=O)OCc5ccccc5)cc43)c3ccccc32)[C@H](OC(C)=O)[C@@H](OC(C)=O)[C@@H]1OC(C)=O
2. CC(=O)OC[C@H]1O[C@@H](N2C(=O)/C(=C3/C(=O)Nc4ccc(I)cc43)c3cc(Br)ccc32)[C@H](OC(C)=O)[C@@H](OC(C)=O)[C@@H]1OC(C)=O
3. CC(=O)OC[C@H]1O[C@@H](N2C(=O)/C(=C3/C(=O)Nc4ncc(I)cc43)c3ccccc32)[C@H](OC(C)=O)[C@@H](OC(C)=O)[C@@H]1OC(C)=O
4. CC(=O)OC[C@H]1O[C@@H](N2C(=O)/C(=C3/C(=O)Nc4ncc(Br)cc43)c3cc(Br)ccc32)[C@H](OC(C)=O)[C@@H](OC(C)=O)[C@@H]1OC(C)=O

["> 65%", "> 65%", "> 65%", "> 65%"]

# return Activity for each item in the list
1. CC(=O)OC[C@H]1O[C@@H](N2C(=O)/C(=C3/C(=O)Nc4ccc(C#CCNC(=O)OCc5ccccc5)cc43)c3cc(Br)ccc32)[C@H](OC(C)=O)[C@@H](OC(C)=O)[C@@H]1OC(C)=O
2. CC(=O)OC[C@H]1O[C@@H](N2C(=O)/C(=C3/C(=O)Nc4ccc(C#CCCO)cc43)c3ccccc32)[C@H](OC(C)=O)[C@@H](OC(C)=O)[C@@H]1OC(C)=O
3. CC(=O)OC[C@H]1O[C@@H](N2C(=O)/C(=C3/C(=O)Nc4ncc(C#CCNC(=O)OCc5ccccc5)cc43)c3ccccc32)[C@H](OC(C)=O)[C@@H](OC(C)=O)[C@@H]1OC(C)=O

> 65%
> 65%
> 65%
